Origin of values: patent US20200360352A1

# System: Mycobacterium kansasii
# assay summary: MIC, micro broth dilution with resazurin readout
# Format: cell-based
# test settings: MH Culture Medium, clinically isolated strain Kansasii (S9), read-out: Minimum Inhibitory Concentration (MIC)
experimental endpoint: MIC (µg/mL)
I only need the number, in µg/mL, no unit after it.

Some solved cases for reference:
CC[C@H]1OC(=O)[C@H](C)[C@@H](O[C@H]2C[C@@](C)(OC)[C@@H](O)[C@H](C)O2)[C@H](C)[C@@H](O[C@@H]2O[C@H](C)C[C@H](N(C)C)[C@H]2O)[C@](C)(OC)C[C@@H](C)C(=O)[C@H](C)[C@@H](O)[C@]1(C)O [Clarithromycin]    0.125
CO[C@H]1/C=C/O[C@@]2(C)Oc3c(C)c(O)c4c(c3C2=O)C2=NC3(CCN(CC(C)C)CC3)NC2=C(NC(=O)/C(C)=C\C=C\[C@H](C)[C@H](O)[C@@H](C)[C@@H](O)[C@@H](C)[C@H](OC(C)=O)[C@@H]1C)C4=O [Rifabutin]    0.0625
Cc1ncc([N+](=O)[O-])n1CCO [Metronidazole]    8

So the reported MIC for CO[C@H]1/C=C/O[C@@]2(C)Oc3c(C)c(O)c4c(O)c(c(/C=N/N5CCN(C)CC5)c(O)c4c3C2=O)NC(=O)/C(C)=C\C=C\[C@H](C)[C@H](O)[C@@H](C)[C@@H](O)[C@@H](C)[C@H](OC(C)=O)[C@@H]1C [Rifampicin] , on Mycobacterium kansasii, turned out to be 0.125

So the reported MIC for CO[C@H]1/C=C/O[C@@]2(C)Oc3c(C)c(O)c4c(c3C2=O)C2=NC3(CCN(CCn5c([N+](=O)[O-])cnc5C)CC3)NC2=C(NC(=O)/C(C)=C\C=C\[C@H](C)[C@H](O)[C@@H](C)[C@@H](O)[C@@H](C)[C@H](OC(C)=O)[C@@H]1C)C4=O [Compound I] , on Mycobacterium kansasii, turned out to be 0.0625

So the reported MIC for COc1c(N2C[C@@H]3CCCN[C@@H]3C2)c(F)cc2c(=O)c(C(=O)O)cn(C3CC3)c12 [Moxifloxacin] , on Mycobacterium kansasii, turned out to be 0.0625
